Quick reference for Kd among some molecules
# PROTOCOL TEXT: Binding affinity to porcine alpha/beta tubulin assessed as decrease in tryptophan fluorescence measured after 30 mins by tryptophan fluorescence assay
# Design: species or system Sus scrofa
// return numeric value only (unit: µM, not printed)

Recorded Kd, per entry:
INSERT INTO assay_data (molecule, measured_number) VALUES
  ('COc1cc2occ(-c3cc(OC)c4c(c3OC)OCO4)c(=O)c2cc1OC', 80),
  ('COc1cc2c(c(OC)c1OC)-c1ccc(OC)c(=O)cc1[C@@H](NC(C)=O)CC2', 26.6);

// switching to the query molecule
Request: Give its Kd value. Item: COc1cc2occ(-c3cc(OC)c4c(c3OC)OCO4)c(=O)c2cc1OCc1ccccc1
Result: 1
